target: Nav1.9; experiment: cell-based or functional assay
PARAMETER MEASURED: IC50

Lookup: IC50 for GNDCLGFWSACNPKNDKCCANLVCSSKHKWCKGKL (modifications not checked) [Hs1a] ?
Found: > 3 µM

Values were extracted from patent US20220089663A1.
